Biological target: human active recombinant p38α-6His tagged (Homo sapiens)
Sequence (Q16539 whole entry): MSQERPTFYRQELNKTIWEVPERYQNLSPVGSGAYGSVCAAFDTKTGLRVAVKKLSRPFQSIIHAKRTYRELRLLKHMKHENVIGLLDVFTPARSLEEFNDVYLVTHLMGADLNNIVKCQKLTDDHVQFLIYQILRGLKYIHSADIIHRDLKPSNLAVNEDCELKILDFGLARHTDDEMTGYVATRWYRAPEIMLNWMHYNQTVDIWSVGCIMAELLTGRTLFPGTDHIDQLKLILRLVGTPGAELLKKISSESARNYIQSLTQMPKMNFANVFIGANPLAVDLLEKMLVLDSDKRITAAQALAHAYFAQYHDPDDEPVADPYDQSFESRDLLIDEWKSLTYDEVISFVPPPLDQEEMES
Assay: P38 Alpha Enzyme Assay (AlphaScreen, biotinylated-ATF2 substrate);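 further: 0.5 nM final p38α, reaction started with ATP and run 45 min at 37 °C, phospho-ATF2 read by antibody-based AlphaScreen, background wells quenched with EDTA before ATP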
Type: biochemical
Conditions: p38 alpha enzyme inhibition; means of replicate determinations; 4 h pre-incubation at 37° C.; SD of assay 0.2-0.3 log units
VALUE TYPE: pIC50

Cc1c(F)cc(C(=O)NC2CC2)cc1-n1ccnc(NC(C)(C)c2ccccc2OCCNCC(C)(C)O)c1=O [Example 257]; 10.3
Cc1ccc(C(=O)NC2CC2)cc1-n1ccnc(N[C@@H](c2ccccc2)[C@@H](C)CN2CCC(O)CC2)c1=O [Example 152]; 8.9
Cc1ccc(C(=O)NC2CC2)cc1-n1ccnc(NC(C)(C)c2ccccc2OC[C@H](N)CO)c1=O [Example 305]; 9.9
Cc1ccc(C(=O)NC2CC2)cc1-n1ccnc(NCCc2ccc(O)cc2)c1=O [Example 70]; 6.8
Cc1ccc(C(=O)NC2CC2)cc1-n1ccnc(NC(C)(C)c2ccccc2OCC2CCCNC2)c1=O (stereo not shown) [Example 218]; 9.1
CNCCCc1ccccc1C(C)(C)Nc1nccn(-c2cc(C(=O)NC3CC3)cc(F)c2C)c1=O [Example 323]; 9.5
Cc1ccc(C(=O)NC2CC2)cc1-n1ccnc(NC2(c3cccc(F)c3OCCNC[C@@H](C)O)CC2)c1=O [Example 283]; 9.7
